System: SNB-19 CNS
method.notes: NCI tumour cell line growth inhibition, 48 h
value.kind: TGI

[[record]]
compound = "COc1cc2c(cc1OC)-c1ccc3cc4c(cc3c1N(CCCn1ccnc1)C2)OCO4"
test_value = "12.7 µM"

[[record]]
compound = "CCCCN1CN2C(=O)C(C(=O)OCC)C(=O)c3sc4nc(SC)nc1c4c32 (stereo unspecified)"
test_value = "34.8 µM"

[[record]]
compound = "Cc1cc(C)c(S(=O)(=O)N2CCCN(S(=O)(=O)c3c(C)cc(C)cc3C)OCCCO2)c(C)c1"
test_value = "> 100 µM"

[[record]]
compound = "CCCC[C@H]1[C@@H](OCOc2ccccc2)COC(=O)N1[C@H](C)c1ccccc1"
test_value = "> 55 µM"

[[record]]
compound = "COc1cc(S(=O)(=O)Nc2nc(-c3ccc(N4C(=O)/C(=C/C=C/c5ccccc5)N=C4c4ccccc4)cc3)cs2)ccc1Cl"
test_value = "> 100 µM"

[[record]]
compound = "O=S(=O)(NCCCNc1nccc(-c2c(-c3ccc(F)c(O)c3)nc3sccn23)n1)c1ccc(F)cc1"
test_value = "> 100 µM"

[[record]]
compound = "O=C(O)C1CCCCC1C(=O)Nn1cnnc1 (stereo unspecified)"
test_value = "> 100 µM"

[[record]]
compound = "C=C1C(C2(C)C(OC(C)=O)CC(=O)OC(C)(COC(C)=O)C2CC(=O)OC)C(OC=O)C(OC(=O)C(O)C(C)CC)C2(C)C(c3ccoc3)CC(=O)C12O (stereo unspecified)"
test_value = "> 100 µM"

[[record]]
compound = "O=C1c2ccccc2C(=O)N1CC1S(=O)(=O)OCCOS1(=O)=O"
test_value = "> 100 µM"

[[record]]
compound = "C=C1C(=O)OC2C1CCC(C)C1C=CC(=O)C12C (stereo unspecified)"
test_value = "46.1 µM"

[[record]]
compound = "COc1ccc(-c2cc(=O)c3ccccc3o2)cc1N"
test_value = "> 100 µM"


---

Reported TGI values for a set of compounds
System: A498 renal
method.notes: NCI tumour cell line growth inhibition, 48 h
value.kind: TGI

[[record]]
compound = "Cc1ccc2c(-c3ccnc(Nc4ccccc4)n3)c(-c3ccc(F)cc3)nn2n1"
value_kind = "TGI"
test_value = "21.5 µM"

[[record]]
compound = "Cc1n[nH]c(=O)n1/N=C/c1ccc(F)cc1"
value_kind = "TGI"
test_value = "> 100 µM"

[[record]]
compound = "CC(=O)[CH-]C(=O)c1ccccc1.CC(=O)[CH-]C(=O)c1ccccc1.CC(C)CCCC(C)[C@H]1CCC2[C@@H]3CC=C4C[C@@H]([O-])CC[C@]4(C)C3CC[C@@]21C.CC(C)CCCC(C)[C@H]1CCC2[C@@H]3CC=C4C[C@@H]([O-])CC[C@]4(C)C3CC[C@@]21C.[Ti+4] (stereo partly drawn)"
value_kind = "TGI"
test_value = "> 100 µM"


---

Reported TGI values for a set of molecules
Test system: OVCAR-8 ovarian
method.notes: NCI tumour cell line growth inhibition, 48 h
value.kind: TGI

[[record]]
molecule = "C=CC1CCC[N+]1(CC(=O)OCC)Cc1ccccc1 (configuration not stated)"
value_kind = "TGI"
test_value = "> 100 µM"

[[record]]
molecule = "CCOC(=O)N1c2c(ccn2C)-c2ccn(C)c2N1C(=O)OCC"
value_kind = "TGI"
test_value = "27.9 µM"

[[record]]
molecule = "COc1cc(N2CCC(N3CCN(C)CC3)CC2)ccc1Nc1ncnc(Nc2ccccc2S(=O)(=O)C(C)C)n1"
value_kind = "TGI"
test_value = "21.3 µM"

[[record]]
molecule = "O=S(=O)(c1ccccc1)C(c1ccc2ccccc2n1)S(=O)(=O)c1ccccc1"
value_kind = "TGI"
test_value = "> 100 µM"

[[record]]
molecule = "O=S(CC1(O)CCCCC1)c1ccccc1 (configuration not stated)"
value_kind = "TGI"
test_value = "> 100 µM"

[[record]]
molecule = "COc1ccc(C(=O)C(C(=O)CC(=O)Nc2cccc(C(F)(F)F)c2)c2ccc(OC)cc2)cc1 (configuration not stated)"
value_kind = "TGI"
test_value = "> 100 µM"

[[record]]
molecule = "CC1(C)CC2=C(Sc3ccccc3N2)C(=O)C1C(=O)C(=O)Nc1cccc([N+](=O)[O-])c1 (configuration not stated)"
value_kind = "TGI"
test_value = "> 100 µM"

